# Test system: T1, FZD6 CRD (Homo sapiens, UniProt O60353)
# T1 construct: S20-P146; GPI anchor signal (C); expressed in transfected cells; host or cells: CHO cells, lentiviral pLenti-puro
# T1 sequence (O60353 20-146): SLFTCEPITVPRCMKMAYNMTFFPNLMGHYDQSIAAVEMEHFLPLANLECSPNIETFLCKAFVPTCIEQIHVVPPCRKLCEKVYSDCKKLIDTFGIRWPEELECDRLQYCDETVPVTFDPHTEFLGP
# Run description: Immunofluorescence of anti-FZD5 Fab binding to CHO cells overexpressing Frizzled CRD
# Parameters: key: −: no binding; +: very weak binder; ++: weak binder; +++: good binder; ++++: very good binder
Assay metric: Immunofluorescence binding, Frizzled CRD overexpressed on CHO cells: FZD6

• Fab-2934: anti-FZD5 Fab with antibody variable region Fv-2934; CDR SEQ ID NOs: 35, 36, 73, 110, 149, 155 (antibody, V domains shown) VH: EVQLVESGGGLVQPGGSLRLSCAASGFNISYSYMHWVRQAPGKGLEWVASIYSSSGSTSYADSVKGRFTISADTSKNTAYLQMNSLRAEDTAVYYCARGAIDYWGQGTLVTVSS VL: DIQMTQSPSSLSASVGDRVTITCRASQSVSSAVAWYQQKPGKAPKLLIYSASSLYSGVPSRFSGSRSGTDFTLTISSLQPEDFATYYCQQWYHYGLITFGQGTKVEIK = −
• Fab-2930: anti-FZD5 Fab with antibody variable region Fv-2930; CDR SEQ ID NOs: 35, 36, 69, 107, 145, 153 (antibody, V domains shown) VH: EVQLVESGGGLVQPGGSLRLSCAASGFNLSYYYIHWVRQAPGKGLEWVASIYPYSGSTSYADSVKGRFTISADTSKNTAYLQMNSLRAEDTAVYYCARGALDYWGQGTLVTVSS VL: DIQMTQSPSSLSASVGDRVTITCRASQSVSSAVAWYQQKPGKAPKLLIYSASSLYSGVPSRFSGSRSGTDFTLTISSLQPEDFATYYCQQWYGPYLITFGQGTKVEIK = −
• Fab-2913: anti-FZD5 Fab with antibody variable region Fv-2913; CDR SEQ ID NOs: 35, 36, 52, 91, 128, 165 (antibody, V domains shown) VH: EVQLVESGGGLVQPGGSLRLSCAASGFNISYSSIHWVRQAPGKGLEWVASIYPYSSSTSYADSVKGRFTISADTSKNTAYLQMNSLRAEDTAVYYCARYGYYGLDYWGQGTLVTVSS VL: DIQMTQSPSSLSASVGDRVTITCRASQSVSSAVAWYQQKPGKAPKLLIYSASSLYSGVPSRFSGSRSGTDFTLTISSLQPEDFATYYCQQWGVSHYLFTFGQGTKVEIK = −
• Fab-2920: anti-FZD5 Fab with antibody variable region Fv-2920; CDR SEQ ID NOs: 35, 36, 59, 98, 135, 170 (antibody, V domains shown) VH: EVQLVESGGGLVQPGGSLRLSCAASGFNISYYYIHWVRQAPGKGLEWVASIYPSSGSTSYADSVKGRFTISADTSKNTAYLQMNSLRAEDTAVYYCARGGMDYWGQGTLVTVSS VL: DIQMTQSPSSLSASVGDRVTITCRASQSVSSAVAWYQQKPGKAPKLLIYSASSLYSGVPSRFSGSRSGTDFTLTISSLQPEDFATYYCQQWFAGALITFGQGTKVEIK = −
